# experimental.parameters: in acetone, 308.15 K
quantity.measured: solubility (mole fraction)

solubility (mole fraction) for CC(C)(C)OC(=O)N[C@@H](CC(N)=O)C(=O)O ?
0.00201

---

# experimental.parameters: in water, 298.15 K
quantity.measured: solubility (mole fraction)
Output: the number by itself.

solubility (mole fraction) for CC(C)(C)OC(=O)N[C@@H](CC(N)=O)C(=O)O ?
0.000452

---

# experimental.parameters: in n-propanol, 298.15 K
quantity.measured: solubility (mole fraction)
Output: the number by itself.

solubility (mole fraction) for CC(C)(C)OC(=O)N[C@@H](CC(N)=O)C(=O)O ?
0.00195
